Tgt: Adenosine receptor A2a (Homo sapiens, UniProt P29274)
Sequence (P29274 whole entry): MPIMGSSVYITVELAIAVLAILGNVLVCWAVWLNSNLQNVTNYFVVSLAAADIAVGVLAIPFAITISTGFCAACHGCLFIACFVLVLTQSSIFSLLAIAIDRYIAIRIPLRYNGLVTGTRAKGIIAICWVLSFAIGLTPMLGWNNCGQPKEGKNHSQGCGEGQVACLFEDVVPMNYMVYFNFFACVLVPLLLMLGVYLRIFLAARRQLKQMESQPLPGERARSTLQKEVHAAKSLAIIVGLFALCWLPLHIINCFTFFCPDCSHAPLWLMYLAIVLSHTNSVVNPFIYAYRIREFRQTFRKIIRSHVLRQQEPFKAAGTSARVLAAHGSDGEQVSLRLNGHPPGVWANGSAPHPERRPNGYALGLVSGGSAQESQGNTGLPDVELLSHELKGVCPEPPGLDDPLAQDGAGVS
Experiment: Displacement of [3H]ZM241385 from human A2A adenosine receptor expressed in CHO cells at 1 uM after 60 mins by scintillation counting analysis
Type: cell-based
Parameter measured: inhibition (%)

| Structure as smiles | inhibition [%] |
| --- | --- |
| COc1ccc(-n2cc3nc(C)nc(NC(=O)c4ccccc4)c3n2)cc1 | 7 |

[1] COc1ccc(-n2cc3nc(C)nc(NC(=O)NCc4ccccc4)c3n2)cc1
[2] COc1ccc(-n2cc3nc(Cc4ccccc4)nc(N)c3n2)cc1
[3] COc1ccc(-n2cc3nc(-c4ccccc4)nc(NC(=O)Cc4ccccc4)c3n2)cc1
[4] O=C(Nc1nc(-c2ccccc2)nc2cn(-c3ccccc3)nc12)c1ccncc1
[in] Ordering: ascending inhibition. Reply: labels, ordered per the request.
[out] 4, 1, 3, 2
(4: 1%, 1: 7%, 3: 18%, 2: 37%)

----------
Tgt: Adenosine receptor A2a (Homo sapiens)
Experiment: Displacement of [3H]ZM241385 from human A2A adenosine receptor expressed in CHO cells at 1 uM after 60 mins by scintillation counting analysis
Format: cell-based
Parameter measured: inhibition (%)

Example cases with answers are listed next.
| Structure as smiles | inhibition [%] |
| --- | --- |
| COc1ccc(C(=O)Nc2nc(-c3ccccc3)nc3cn(-c4ccccc4)nc23)cc1 | 1 |
| Cc1nc(NC(=O)NCc2ccccc2)c2nn(-c3ccccc3)cc2n1 | 7 |

[P] COc1ccc(-n2cc3nc(C)nc(N)c3n2)cc1
[Q] COc1ccc(-n2cc3nc(C)nc(NC(=O)Nc4ccccc4)c3n2)cc1
[R] CC(=O)Nc1nc(-c2ccccc2)nc2cn(-c3ccccc3)nc12
[in] Ranking field: inhibition; order: falling. Reply: labels, ordered per the request.
[out] Q, R, P
(Q: 13%, R: 5%, P: 1%)

[I] Cc1nc(NC(=O)c2ccco2)c2nn(-c3ccccc3)cc2n1
[II] O=C(Cc1ccccc1)Nc1nc(-c2ccccc2)nc2cn(-c3ccccc3)nc12
[III] COc1ccc(-n2cc3nc(-c4ccccc4)nc(NC(C)=O)c3n2)cc1
[in] Ordering: ascending inhibition. Reply: labels, ordered per the request.
[out] I, II, III
(I: 1%, II: 5%, III: 11%)

[1] Cc1nc(NC(=O)c2ccccc2)c2nn(-c3ccccc3)cc2n1
[2] CC(=O)Nc1nc(C)nc2cn(-c3ccccc3)nc12
[in] Which entry shows the lesser value of inhibition here, 1 or 2 ? Answer by stating the label of the chosen item.
[out] 1

----------
Tgt: Adenosine receptor A1 (Homo sapiens) (UniProt P30542)
Sequence (P30542 whole entry): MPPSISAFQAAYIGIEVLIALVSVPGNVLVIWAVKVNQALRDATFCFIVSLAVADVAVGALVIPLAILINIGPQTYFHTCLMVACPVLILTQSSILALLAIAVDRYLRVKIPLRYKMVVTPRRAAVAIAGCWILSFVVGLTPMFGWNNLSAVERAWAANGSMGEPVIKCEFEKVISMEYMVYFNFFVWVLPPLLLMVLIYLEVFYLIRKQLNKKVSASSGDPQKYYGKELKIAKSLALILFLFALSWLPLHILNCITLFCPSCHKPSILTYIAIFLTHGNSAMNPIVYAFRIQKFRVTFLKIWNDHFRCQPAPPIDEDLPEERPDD
Experiment: Displacement of [3H]DPCPX from human A1 adenosine receptor expressed in CHO cells at 1 uM after 120 mins by scintillation counting analysis
Type: cell-based
Parameter measured: inhibition (%)

| Structure as smiles | Result unit | Reported measurement |
| --- | --- | --- |
| COc1ccc(-n2cc3nc(-c4ccccc4)nc(NC(=O)Cc4ccccc4)c3n2)cc1 | % | 29 |

[A] Cc1nc(NC(=O)c2ccncc2)c2nn(-c3ccccc3)cc2n1
[B] COc1ccc(-n2cc3nc(Cc4ccccc4)nc(N)c3n2)cc1
[C] Cc1nc(N(C(=O)c2ccccc2)C(=O)c2ccccc2)c2nn(-c3ccccc3)cc2n1
[D] Cc1nc(NC(=O)c2ccco2)c2nn(-c3ccccc3)cc2n1
[in] Ordering: ascending inhibition. Reply: labels, ordered per the request.
[out] C, A, D, B
